Origin of the recorded values: patent US20180230143A1

# target desc: RUNX1-BCR protein (Homo sapiens, UniProt P11274+Q01196)
# Construct: replacing the NHR2 domain of the construct with the homologous BCR tetramerization domain (RUNX1-BCR protein); His6 (C); made in house; host or cells: E. coli BL21(DE3)
# Sequence (Q01196+P11274 fused): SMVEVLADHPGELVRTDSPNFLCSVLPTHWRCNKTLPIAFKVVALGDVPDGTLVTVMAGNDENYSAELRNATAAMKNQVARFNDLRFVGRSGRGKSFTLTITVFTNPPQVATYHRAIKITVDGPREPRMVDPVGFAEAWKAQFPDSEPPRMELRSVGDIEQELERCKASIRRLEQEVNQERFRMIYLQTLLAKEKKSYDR
# assay info: ABCD (avidin, biotin, complex, DNA) assay with RUNX1-BCR protein
# Type: biochemical
# measurement context: relative inhibition at 1 mM inhibitor concentration; RUNX1-BCR; read-out: ABCD Inhibition [%] BCR
property name: inhibition at 1000 µM (%)
Provide the reading as a plain figure in %.

Here's what some known entries look like.
In [3]: df
Out[3]:
                                   compound  unit_label  result_number
0  Cc1c(CC(=O)NCCC(=O)O)c(=O)oc2c(C)c3occ(C(C)(C)C)c3cc12 [Compound 5.17]           %           95.3
1  Cc1oc(C(=O)O)cc1CSCc1cc(C(=O)O)oc1C [Compound 5.9]           %           14.6
2  Cc1c(C(=O)O)[nH]c(/C=C/C(=O)O)nc1=O [Compound 7.38, reference compound]           %           26.1
3  Cc1ccc(OCC(=O)O)c(OCC(=O)O)c1 [Compound 7.3]           %           28.5

// returns reported inhibition at 1000 µM for input COc1ccc(OC)c2[nH]c(C(=O)NCC3(CC(=O)O)CCCCC3)cc12 [Compound 5.18] 52.6
